Below is a list of entries, each paired with its recorded pest or weed control at 121.5 g/ha value.
# Test system: Septoria tritici
# run.description: Leaf blotch of wheat (SEPTTR) disease control on wheat seedlings
# Type: in vivo, Mycosphaerella graminicola (anamorph Septoria tritici)
# condition.details: Zymoseptoria tritici, 72 h, 3DC (3 Day Curative), 121.5 g/H, low volume (track spray) application, read-out: SEPTTR disease control rating (% Control)

Challenge: Return the recorded pest or weed control at 121.5 g/ha value; entry: COc1ccnc(C(=O)N[C@H]2COC[C@H](Oc3ccccc3)[C@@H](CCC(C)C)[C@H](C)OC2=O)c1OCOC(C)=O [Compound 32]
Response given: > 70%

Challenge: Retrieve pest or weed control at 121.5 g/ha measured for COCCC(=O)Oc1c(OC)ccnc1C(=O)N[C@H]1COC[C@H](Oc2ccccc2)[C@@H](Cc2ccccc2)[C@H](C)OC1=O [Compound 73] and print it.
Response given: > 70%

Challenge: Using the record for COc1ccnc(C(=O)N[C@H]2COC[C@H](OC(=O)C3CC3)[C@@H](CCC(C)C)[C@H](C)OC2=O)c1OC(C)=O [Compound 68] , state its measured pest or weed control at 121.5 g/ha.
Response given: > 70%

Challenge: Find the measured pest or weed control at 121.5 g/ha of CCCC[C@H]1[C@H](C)OC(=O)[C@@H](NC(=O)c2nccc(OC)c2OCOC(C)=O)COC[C@@H]1OCC1CC1 [Compound 6] and report it.
Response given: > 70%

Challenge: Quick one: give measured pest or weed control at 121.5 g/ha for COc1ccnc(C(=O)N[C@H]2COC[C@H](Oc3ccccc3)[C@@H](Cc3ccccc3)[C@H](C)OC2=O)c1OC(C)=O [Compound 81]
Response given: > 70%

Challenge: Please look at this molecule and report its pest or weed control at 121.5 g/ha: CCCC[C@H]1[C@H](C)OC(=O)[C@@H](NC(=O)c2nccc(OC)c2OC(C)=O)COC[C@@H]1OCC1CC1 [Compound 9]
Response given: > 70%
